Provenance of the data: patent US20250011686A1

# Assay Method Text: Calcium binding efficiency, logK(β110) (Table 1)
# Assay type: physicochemical
# Cond: one metal, one ligand, no protons
Ca^2+ logK(β110) (calcium binding efficiency) overview
Quantity Name: Ca^2+ logK(β110) (calcium binding efficiency)

molecule="Oc1cc(O)c2c(c1)OC(c1ccc(O)c(O)c1)C(O)C2 (stereo not shown)" value_observed=3.5
molecule=CC(C)c1cccc(=O)c(O)c1 value_observed=2.2
molecule="CC(O)(P(=O)(O)O)P(=O)(O)O [HEDP, reference compound]" value_observed=6.8
molecule="O=c1cccccc1O [Tropolone, 2-Hydroxycyclohepta-2,4,6-trien-1-one]" value_observed=3.1

---

# Assay Method Text: Iron binding efficiency, logK(β110) (Table 1)
# Format: physicochemical
# Cond: one metal, one ligand, no protons
Fe (III) logK(β110) (iron binding efficiency) overview
Quantity Name: Fe (III) logK(β110) (iron binding efficiency)

compound="O=c1cccccc1O [Tropolone, 2-Hydroxycyclohepta-2,4,6-trien-1-one]" value_observed=10.5
compound="Oc1cc(O)c2c(c1)OC(c1ccc(O)c(O)c1)C(O)C2 (stereo not shown) [Catechin]" value_observed=19.2
compound="CC(C)c1cccc(=O)c(O)c1 [Hinokitiol]" value_observed=12.9
compound="CC(O)(P(=O)(O)O)P(=O)(O)O [HEDP, reference compound]" value_observed=14.1
